# EXPERIMENTAL_SYSTEM: VEGF165 (recombinant human vascular endothelial growth factor, 165 aa form) (Homo sapiens, UniProt P15692-4 P15692-4:27-191)
# Sequence (P15692 other isoform, or with tags, fused parts or gaps): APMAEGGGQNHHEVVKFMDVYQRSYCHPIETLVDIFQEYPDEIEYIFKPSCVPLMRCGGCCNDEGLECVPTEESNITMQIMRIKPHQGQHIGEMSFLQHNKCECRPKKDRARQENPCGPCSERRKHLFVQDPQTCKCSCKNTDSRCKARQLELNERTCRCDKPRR
# ASSAY_EXPLANATION: filter; PBS, 0.01% HSA, 37 C; Kd1, X1 0.45, Kd2 21 nM
# RECORDED_CONDITIONS: tags: gift from N. Ferrara, Genentech; chain copies: 2 (dimer, stated); label: 32P
PROPERTY_NAME: pKd
pKd here is simply -log10 of the concentration when that concentration is written in mol/L.

QUERY: Quickly give me recorded pKd for ligand 84 (ssRNA) RNA: GGGAGCUCAGAAUAAACGCUCAAUAGUUGGAGGCCUGUCCUCGCCGUAGAGCGUUCGACAUGAGGCCCGGAUCCGGC
RESULT: 9.09
